Recorded values, source paper PMC8705538.

For each of the compounds below, state its Percent inhibition at 100 μM, nsp16.
- assayed system: SARS-CoV-2 nsp16/nsp10 (Severe acute respiratory syndrome coronavirus 2, UniProt P0DTD1)
- test description: biochemical
- experimental conditions: 100 μM
The reply should contain only the number, in %.

Percent inhibition at 100 μM, nsp16 reading for Cc1ncsc1CCC(=O)N1CCCC(C(=O)c2ccc3c4c(cccc24)CC3)C1 (stereo not shown) [ZINC000012755219] : 40

# Percent inhibition at 100 μM, nsp16 (compound: CCN(CCSc1ccccc1)C(=O)c1cc(-c2ccncc2)n[nH]1 [ZINC000097636636] ) is 19

Input NC(=O)CC[C@H](N)C(=O)NS(=O)(=O)OC[C@H]1O[C@@H](n2cnc3c(N)ncnc32)[C@H](O)[C@@H]1O [ZINC000036477981] . Output Percent inhibition at 100 μM, nsp16: 50

// Cc1nn(C)c2ncc(NC(=O)c3ccccc3-c3ncc(-c4ccc(F)cc4)o3)cc12 [ZINC000032754717] : Percent inhibition at 100 μM, nsp16 value = -24

The recorded Percent inhibition at 100 μM, nsp16 for Cc1nc(O)cc(CNc2nc3c(c(=O)[nH]2)Cc2ccccc2OC3)n1 [ZINC000095519272] is 57

# Percent inhibition at 100 μM, nsp16 (compound: CC(=O)c1cnc(NC(C)c2nnc(CC(=O)O)[nH]2)nc1C (stereo not shown) [ZINC1772709012] ) is 32

Query Cc1csc(C2CCCN(C(=O)CCn3cnc4c(N)ncnc43)C2)n1 (stereo not shown) [Compound 046-114-939] yields Percent inhibition at 100 μM, nsp16 of 37

Form field Percent inhibition at 100 μM, nsp16, entry CC(=O)c1cccc(OCc2cc(C(=O)NCC(N)=O)n[nH]2)c1 [ZINC000067920483] : -1

Sure, the documented Percent inhibition at 100 μM, nsp16 for O=C(c1ccc(Cn2ccnc2)o1)N1CCc2[nH]c3ccc(Cl)cc3c2C1 [ZINC000072429175] is 6

For reference, reported Percent inhibition at 100 μM, nsp16 for C=CCn1c(=O)c(=O)n(CC(=O)NCCN2CCN(c3cc(Cl)ccc3C)CC2)c2ccccc21 [ZINC000033268761] stands at 32

The measured Percent inhibition at 100 μM, nsp16 associated with CCN(Cc1ccncc1)C(=O)CC1C(=O)NCCN1CCCc1ccccc1 (stereo not shown) [ZINC000011821342] reads 17

Summary for this compound, Cn1cnn(CCC(=O)N2CCCC(c3nc4ccccc4s3)C2)c1=O (stereo not shown) [Compound 046-705-372] : Percent inhibition at 100 μM, nsp16 is 15

For this compound ( CCOc1ccccc1OCC(=O)N1CCCC(c2nc3ccccc3s2)C1 (stereo not shown) [Compound 005-679-672] ), measured Percent inhibition at 100 μM, nsp16 is -59
